test system: Botulinum neurotoxin type A light chain protease (Clostridium botulinum A str. ATCC 3502); assay: BoNT/A light chain protease inhibitors, confirmation, biochemical, flow cytometry, cherry pick 1 (AID 602139); settings: multiplex microsphere protease assay, at 10 µM, hits give high values
This is one part of the list.
measurement.type: inhibition (%)

1) CCCSc1nc2sc3c(c2c(=O)n1-c1ccc(OC)cc1)CCN(C)C3 : 1.8
2) CCN1CCN(C(C(=O)NC2CCCC2)c2cc3c(cc2[N+](=O)[O-])OCO3)CC1 (configuration not stated) : -0.8
3) O=S(=O)(NC1CCCCC1N1CCC(O)CC1)c1ccc(Cl)cc1 (configuration not stated) : -1
4) Cc1c(NC(=O)c2cccnc2)c(=O)n(-c2ccccc2)n1C : 0.8
5) Nc1ccccc1Sc1cc(Cl)nnc1Cl : -0.2
6) COc1cc2cc(CN(CCN3CCCC3)C(=O)Nc3ccccc3Cl)c(=O)[nH]c2cc1OC : -2.7
7) Cc1onc(-c2ccccc2Cl)c1C(=O)NCCn1ccc2ccccc21 : 2.7
8) Cc1ccc(-c2nc(-c3cccnc3)sc2CC(=O)Nc2ccc(C)c(Cl)c2)cc1 : 7.8
9) COc1cc(C(=O)NCc2ccc3c(c2)cc(C)n3C)cc(OC)c1OC : -0.1
10) Brc1ccc2ncnc(NCc3cccnc3)c2c1 : -2.2
11) COCc1cc(=O)[nH]c(SC)n1 : 0.2
12) Cc1ccc2[nH]cc(CCNC(=O)C3CCCCC3)c2c1 : -0.1
13) O=C(O)c1cc(S(=O)(=O)NC2CCCc3ccccc32)ccc1O (configuration not stated) : 0.7
14) Cc1cc(S(=O)(=O)NC2CCCC2)ccc1-n1cnnn1 : 0.3
15) COC(=O)CN(c1nc(C)c(Cl)c(OC)n1)S(=O)(=O)c1ccc(C)cc1 : 1.8
16) CCOCC(=O)NCc1ccc2c(c1)cc(C)n2C : 1.8
17) COc1ccccc1-n1c(-c2cc(-c3ccco3)[nH]n2)n[nH]c1=S : 1.5
18) OC(c1ccc(Cl)cc1)C(CN1CCOCC1)c1ccccc1 (configuration not stated) : 2.5
19) CN(C(=O)c1ccccn1)c1nnc(-c2ccccn2)s1 : -1.1
20) Cc1cccc2cc3c(N)c(C(=O)N4CCCc5ccccc54)sc3nc12 : 16.3
21) CN1CCN(c2ccc(NC(=O)c3ccccc3)cc2)CC1 : 1.8
22) Cc1ccccc1NC(=O)c1cc(S(=O)(=O)Nc2cccc(C(=O)O)c2)ccc1Cl : -1.4
23) COc1ccc(C(=O)Nc2nc(-c3ccc(OC)cc3)c(-c3ccc([N+](=O)[O-])cc3)s2)cc1 : 15.9
24) COc1ccc(N(CC(=O)NCCSCc2cccc(Cl)c2)S(C)(=O)=O)cc1 : 1
25) CC(C)Cc1nnc(NC(=O)CCC(=O)Nc2ccc3cn[nH]c3c2)s1 : -0.8
26) Clc1ccc(-c2ncc3ccccn23)c(Cl)c1 : 2.4
27) COc1ccc(Br)cc1CNCCc1cccc(Cl)c1 : 1.5

Data origin: PubChem BioAssay AID602139
